Origin of the recorded values: ChEMBL document CHEMBL3046618

- Tested on: Brassica rapa
- method: Toxicity against Brassica rapa assessed as plant growth inhibition at 100 ppm relative to untreated control
- Type: organism-based
- details: in vivo
observable: growth inhibition (GI) (%)
Numeric only. Scale: %

Req: Field request: growth inhibition (GI) | item: Cc1cc(OC(=O)/C=C/c2ccccc2Cl)cc(=O)o1
Resp: 20

Req: Field request: growth inhibition (GI) | item: Cc1ccc(/C=C/C(=O)Oc2cc(CCc3ccccc3)oc(=O)c2)cc1
Resp: 30

Req: Field request: growth inhibition (GI) | item: O=C(/C=C/c1cccc(Cl)c1)Oc1cc(CCc2ccccc2)oc(=O)c1
Resp: 50

Req: Field request: growth inhibition (GI) | item: O=C(/C=C/c1ccccc1Cl)Oc1cc(CCc2ccccc2)oc(=O)c1
Resp: 30

Req: Field request: growth inhibition (GI) | item: O=C(/C=C/c1ccccc1F)Oc1cc(CCc2ccccc2)oc(=O)c1
Resp: 40

Req: Field request: growth inhibition (GI) | item: Cc1ccc(/C=C/C(=O)Oc2cc(C)oc(=O)c2)cc1
Resp: 30

Req: Field request: growth inhibition (GI) | item: Cc1cccc(/C=C/C(=O)Oc2cc(CCc3ccccc3)oc(=O)c2)c1
Resp: 40

Req: Field request: growth inhibition (GI) | item: COc1cc(CCc2ccccc2)oc(=O)c1 [DIHYDRO-5,6-DEHYDROKAWAIN]
Resp: 0

Req: Field request: growth inhibition (GI) | item: O=C(/C=C/c1ccc(Cl)cc1)Oc1cc(CCc2ccccc2)oc(=O)c1
Resp: 20

Req: Field request: growth inhibition (GI) | item: Cc1cccc(/C=C/C(=O)Oc2cc(C)oc(=O)c2)c1
Resp: 40

Req: Field request: growth inhibition (GI) | item: Cc1cc(OC(=O)/C=C/c2ccccc2C)cc(=O)o1
Resp: 80

Req: Field request: growth inhibition (GI) | item: O=C(/C=C/c1ccc(F)cc1)Oc1cc(CCc2ccccc2)oc(=O)c1
Resp: 40

Req: Field request: growth inhibition (GI) | item: Cc1cc(OC(=O)/C=C/c2ccccc2F)cc(=O)o1
Resp: 30

Req: Field request: growth inhibition (GI) | item: CC(C)c1ccc(/C=C/C(=O)Oc2cc(CCc3ccccc3)oc(=O)c2)cc1
Resp: 10

Req: Field request: growth inhibition (GI) | item: Cc1cc(OC(=O)/C=C/c2ccc(C(C)C)cc2)cc(=O)o1
Resp: 20

Req: Field request: growth inhibition (GI) | item: O=C(/C=C/c1ccccc1)Oc1cc(CCc2ccccc2)oc(=O)c1
Resp: 30

Req: Field request: growth inhibition (GI) | item: O=C(/C=C/c1cccc(F)c1)Oc1cc(CCc2ccccc2)oc(=O)c1
Resp: 30

Req: Field request: growth inhibition (GI) | item: Cc1cc(OC(=O)/C=C/c2ccccc2)cc(=O)o1
Resp: 30

====

- System: Brassica rapa
- method: Toxicity against Brassica rapa assessed as plant growth inhibition at 100 ppm relative to untreated control
- Assay type: organism-based
- details: in vivo
observable: growth inhibition (GI)

Req: Field request: growth inhibition (GI) | item: Cc1cc(OC(=O)/C=C/c2ccc(Cl)cc2)cc(=O)o1
Resp: > 60%

Req: Field request: growth inhibition (GI) | item: Cc1cc(OC(=O)/C=C/c2ccc(F)cc2)cc(=O)o1
Resp: > 50%

Req: Field request: growth inhibition (GI) | item: Cc1cc(OC(=O)/C=C/c2cccc(F)c2)cc(=O)o1
Resp: > 50%

Req: Field request: growth inhibition (GI) | item: Cc1ccccc1/C=C/C(=O)Oc1cc(CCc2ccccc2)oc(=O)c1
Resp: > 60%
